tested on: hROMK (hKir1.1) (Homo sapiens)
method: Thallium Flux Assay (ROMK channel functional thallium flux, FLIPR-Tetra)
run parameters: HEK293 cells stably expressing hROMK (hKir1.1); 30 min incubation with compound; HCl salt run where final product was an HCl salt
pIC50: −log10 of the molar value.
endpoint label: pIC50

>>> print(df.to_string())
                                    molecule                       tested_on  value_reported
 0  Cc1c([C@@H](O)CN2CCC(C(=O)N(C)c3ccns3)CC2)ccc2c1COC2=O  hROMK (hKir1.1) (Homo sapiens)            8.00
 1  COc1nsc(NC(=O)C2CCN(C[C@H](O)c3ccc4c(c3C)COC4=O)CC2)n1  hROMK (hKir1.1) (Homo sapiens)            6.77
 2  Cc1c([C@@H](O)CN2CCC(C(=O)Nc3snc4ccncc34)CC2)ccc2c1COC2=O  hROMK (hKir1.1) (Homo sapiens)            7.00
 3  Cc1c([C@@H](O)CN2CCC(C(=O)Nc3cnsc3)CC2)ccc2c1COC2=O  hROMK (hKir1.1) (Homo sapiens)            7.00
 4  Cc1c(CCN2CCC(C(=O)Nc3ccc(C#N)nc3)CC2)ccc2c1COC2=O  hROMK (hKir1.1) (Homo sapiens)            6.68
 5  Cc1c([C@@H](O)CN2CC3C(C2)C3C(=O)Nc2ccns2)ccc2c1COC2=O (stereo partly shown)  hROMK (hKir1.1) (Homo sapiens)            6.80
 6  COc1cc(NC(=O)C2CCN(CCc3ccc4c(c3)COC4=O)CC2)ccc1C#N  hROMK (hKir1.1) (Homo sapiens)            7.52
 7  Cc1c([C@@H](O)CN2CCC(F)(C(=O)Nc3cnns3)CC2)ccc2c1COC2=O  hROMK (hKir1.1) (Homo sapiens)            6.59
 8  COc1nsc(NC(=O)C2C3CN(C[C@H](O)c4ccc5c(c4C)COC5=O)CC32)n1 (stereo partly shown)  hROMK (hKir1.1) (Homo sapiens)            6.51
 9  CCN(C(=O)C1CCN(C[C@H](O)c2ccc3c(c2C)COC3=O)CC1)c1ccns1  hROMK (hKir1.1) (Homo sapiens)            7.30
10  O=C1OCc2cc(CCN3CCC(C(=O)Nc4ccc5cn[nH]c5c4)CC3)ccc21  hROMK (hKir1.1) (Homo sapiens)            6.29
11  Cc1c([C@@H](O)CN2CCC(C(=O)Nc3nc(C#N)cs3)CC2)ccc2c1COC2=O  hROMK (hKir1.1) (Homo sapiens)            6.62
12  O=C1OCc2cc(CCN3CCC(C(=O)Nc4ccc5sncc5c4)CC3)ccc21  hROMK (hKir1.1) (Homo sapiens)            6.33

---

Listing of entries alongside the reported pIC50.
tested on: hROMK (hKir1.1) (Homo sapiens, UniProt P48048)
Sequence (P48048 whole entry): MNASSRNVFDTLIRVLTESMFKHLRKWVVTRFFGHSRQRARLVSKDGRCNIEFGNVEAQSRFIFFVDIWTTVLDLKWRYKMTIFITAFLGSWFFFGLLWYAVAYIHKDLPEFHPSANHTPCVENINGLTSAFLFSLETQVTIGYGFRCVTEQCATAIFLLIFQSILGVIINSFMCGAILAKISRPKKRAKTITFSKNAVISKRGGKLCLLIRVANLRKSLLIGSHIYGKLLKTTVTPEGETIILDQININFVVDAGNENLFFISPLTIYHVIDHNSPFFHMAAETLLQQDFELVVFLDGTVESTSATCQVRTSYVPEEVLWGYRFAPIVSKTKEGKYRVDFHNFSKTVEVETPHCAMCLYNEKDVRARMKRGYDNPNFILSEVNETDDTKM
method: Thallium Flux Assay (ROMK channel functional thallium flux, FLIPR-Tetra)
run parameters: HEK293 cells stably expressing hROMK (hKir1.1); 30 min incubation with compound; HCl salt run where final product was an HCl salt
pIC50: −log10 of the molar value.
endpoint label: pIC50

In [3]: df
Out[3]:
                                   molecule  endpoint_label  value_reported
0  Cc1c(CCN2CCC(C(=O)Nc3ccc(C#N)c(F)c3)CC2)ccc2c1COC2=O           pIC50            7.52
1  Cc1c(CCN2CCC(C(=O)Nc3ccc4c(c3)COC4=O)CC2)ccc2c1COC2=O           pIC50            8.00
2  Cc1cc(NC(=O)C2(F)CCN(C[C@H](O)c3ccc4c(c3C)COC4=O)CC2)sn1           pIC50            7.40
3  Cc1c([C@@H](O)CN2CCC(F)(C(=O)Nc3ccns3)CC2)ccc2c1COC2=O           pIC50            7.22
4  Cl.[2H]C([2H])([2H])N(C(=O)C1CCN(C[C@H](O)c2ccc3c(c2C)COC3=O)CC1)c1ccns1           pIC50            7.70
5  Cc1nsc(N(C)C(=O)C2C3CN(C[C@H](O)c4ccc5c(c4C)COC5=O)CC32)n1 (some centres unmarked)           pIC50            6.77
6  CCOc1cc(NC(=O)C2CCN(CCc3ccc4c(c3)COC4=O)CC2)ccc1C#N           pIC50            7.52
7  Cc1ccc(C#N)cc1NC(=O)C1CCN(CCc2ccc3c(c2C)COC3=O)CC1           pIC50            6.34

Every entry's value here was drawn from patent US9951052B2.
